Some compounds, each annotated with its measured pIC50.
targetSystem: CLK3 (Homo sapiens)
Sequence (P49761 whole entry): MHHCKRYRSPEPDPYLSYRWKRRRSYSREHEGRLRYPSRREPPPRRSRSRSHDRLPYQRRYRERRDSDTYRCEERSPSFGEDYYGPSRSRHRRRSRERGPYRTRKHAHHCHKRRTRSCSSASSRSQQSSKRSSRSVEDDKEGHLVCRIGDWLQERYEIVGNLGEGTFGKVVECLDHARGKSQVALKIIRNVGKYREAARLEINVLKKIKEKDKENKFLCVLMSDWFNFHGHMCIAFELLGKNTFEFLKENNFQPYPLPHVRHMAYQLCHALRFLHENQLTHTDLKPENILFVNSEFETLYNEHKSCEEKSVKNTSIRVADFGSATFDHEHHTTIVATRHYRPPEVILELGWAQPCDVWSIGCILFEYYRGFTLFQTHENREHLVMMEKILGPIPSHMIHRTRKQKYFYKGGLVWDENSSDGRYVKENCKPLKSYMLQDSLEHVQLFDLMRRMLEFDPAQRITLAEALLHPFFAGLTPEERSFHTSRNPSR
methodNotes: In vitro kinase inhibition, ADP-Glo enzyme activity assay
Assay type: biochemical
runParameters: read-out: Enzymatic activity (IC50) CLK3
pIC50: −log10 of the molar value.

Ask: Tell me the measured pIC50 of O=C(CC1CC1)Nc1cncc(-c2ccc3[nH]nc(-c4nc(=O)c5ccccc5[nH]4)c3c2)c1 , please.
Reply: > 8.00

***
Ask: Tell me the measured pIC50 of CC(C)CC(=O)Nc1cncc(-c2ccc3[nH]nc(-c4cccnc4)c3c2)c1 , please.
Reply: > 8.00

Ask: Tell me the measured pIC50 of CC(C)CC(=O)Nc1cncc(-c2ccc3[nH]nc(-c4nc(=O)c5ccccc5[nH]4)c3c2)c1 , please.
Reply: > 8.00

Ask: Tell me the measured pIC50 of O=C(CC1CCCCC1)Nc1cncc(-c2ccc3[nH]nc(-c4nc(=O)c5ccccc5[nH]4)c3c2)c1 , please.
Reply: 7.00 to 7.30

Ask: Tell me the measured pIC50 of O=c1nc(-c2n[nH]c3ccc(-c4cncc(O)c4)cc23)[nH]c2ccccc12 , please.
Reply: 7.30 to 8.00

Ask: Tell me the measured pIC50 of CC(C)CC(=O)Nc1cncc(-c2ccc3[nH]nc(-c4ccc5ocnc5c4)c3c2)c1 , please.
Reply: > 8.00

Ask: Tell me the measured pIC50 of CC(C)C[C@H](N)COc1cncc(-c2ccc3[nH]nc(-c4nc(=O)c5ccncc5[nH]4)c3c2)c1 , please.
Reply: > 8.00

Ask: Tell me the measured pIC50 of CC(C)(C)C(=O)Nc1cncc(-c2ccc3[nH]nc(-c4nc(=O)c5ccccc5[nH]4)c3c2)c1 , please.
Reply: 7.30 to 8.00

* * *

targetSystem: CLK2 (Homo sapiens, UniProt P49760)
Sequence (P49760 whole entry): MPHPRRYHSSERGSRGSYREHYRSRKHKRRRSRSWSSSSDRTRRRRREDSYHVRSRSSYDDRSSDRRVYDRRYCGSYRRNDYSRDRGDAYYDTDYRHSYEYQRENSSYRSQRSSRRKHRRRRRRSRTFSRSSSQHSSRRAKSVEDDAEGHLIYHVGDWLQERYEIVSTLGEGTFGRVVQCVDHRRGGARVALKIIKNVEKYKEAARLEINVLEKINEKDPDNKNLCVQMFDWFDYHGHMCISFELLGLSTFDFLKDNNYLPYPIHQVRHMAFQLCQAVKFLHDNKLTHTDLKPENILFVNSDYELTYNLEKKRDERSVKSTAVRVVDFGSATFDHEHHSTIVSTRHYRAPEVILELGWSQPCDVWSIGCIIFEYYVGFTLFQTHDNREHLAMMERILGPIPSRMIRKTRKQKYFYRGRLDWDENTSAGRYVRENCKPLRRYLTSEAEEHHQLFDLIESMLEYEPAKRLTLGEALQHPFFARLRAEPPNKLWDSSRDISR
methodNotes: In vitro kinase inhibition, ADP-Glo enzyme activity assay
Type: biochemical
runParameters: read-out: Enzymatic activity (IC50) CLK2
assayEndpoint: IC50

// solved cases for IC50 follow
Ask: Tell me the measured IC50 of CC(C)C[C@H](N)COc1cncc(-c2ccc3[nH]nc(-c4nc(=O)c5ccncc5[nH]4)c3c2)c1 [LH-037] , please.
Reply: 10 to 50 nM

Ask: Tell me the measured IC50 of CC(C)CC(=O)Nc1cncc(-c2ccc3[nH]nc(-c4ccc5ocnc5c4)c3c2)c1 [LH-041] , please.
Reply: < 10 nM

Ask: Tell me the measured IC50 of CC(C)CC(=O)Nc1cncc(-c2ccc3[nH]nc(-c4cccnc4)c3c2)c1 [LH-039] , please.
Reply: 10 to 50 nM

***
Ask: Tell me the measured IC50 of CC(C)CC(=O)Nc1cncc(-c2ccc3[nH]nc(-c4nc(=O)c5ccccc5[nH]4)c3c2)c1 [LH-001] , please.
Reply: < 10 nM

* * *

targetSystem: UniProt:P49761
methodNotes: In vitro kinase inhibition, ADP-Glo enzyme activity assay
Format: biochemical
runParameters: read-out: Enzymatic activity (IC50) CLK3
Some molecules, each annotated with its measured IC50.

// solved cases for IC50 follow
Ask: Tell me the measured IC50 of CN1CCN(Cc2cncc(-c3ccc4[nH]nc(-c5nc(=O)c6ccccc6[nH]5)c4c3)c2)CC1 , please.
Reply: > 100 nM

Ask: Tell me the measured IC50 of CC(C)CC(=O)Nc1cncc(-c2ccc3[nH]nc(-c4ccncc4)c3c2)c1 , please.
Reply: 10 to 50 nM

Ask: Tell me the measured IC50 of O=C(Nc1cncc(-c2ccc3[nH]nc(-c4nc(=O)c5ccccc5[nH]4)c3c2)c1)C1CC(F)(F)C1 , please.
Reply: 10 to 50 nM

***
Ask: Tell me the measured IC50 of O=c1nc(-c2n[nH]c3ccc(-c4cncc(NCC5CCCCC5)c4)cc23)[nH]c2ccccc12 , please.
Reply: 50 to 100 nM

Ask: Tell me the measured IC50 of CN(C)Cc1cncc(-c2ccc3[nH]nc(-c4nc(=O)c5ccccc5[nH]4)c3c2)c1 , please.
Reply: 50 to 100 nM

Ask: Tell me the measured IC50 of O=C(Nc1cncc(-c2ccc3[nH]nc(-c4nc(=O)c5ccccc5[nH]4)c3c2)c1)C1CCCC1 , please.
Reply: 10 to 50 nM

Ask: Tell me the measured IC50 of FC1(F)CCN(Cc2cncc(-c3ccc4[nH]nc(C5=NCc6ccccc6N5)c4c3)c2)C1 , please.
Reply: 10 to 50 nM

Ask: Tell me the measured IC50 of CC(C)C[C@H](N)COc1cncc(-c2ccc3[nH]nc(-c4nc(=O)c5ccccc5[nH]4)c3c2)c1 , please.
Reply: 50 to 100 nM
